Recorded values, source patent US20260008872A1.

# systemTested: T1, epitope tag peptide SRLEEELRRRLTE (SEQ ID NO: 2), biotinylated (also: biotinylated (site and linker not given here))
# T1 construct: Rationally designed peptide; also called ALFA-tag
# T1 peptide: SRLEEELRRRLTE
# assaySummary: BLI (Octet), biotinylated peptide on SAX2.0 biosensors, 1:1 global fit
Ends that are not written are not given here.
// reported koff for each item listed
assayMetric: koff (s⁻¹)

- binder: "Variant 15 of humanized NbALFA (VHH) VHH: EVQLVESGGGLVQPGGSLRLSCAASGVTISALNAMAMGWYRQAPGKRREMVAAVSERGNTYYRDSVKGRFTISRDNSKNTLYLQMNSLRAEDTAVYYCHVLEDRVDSFHDYWGQGTQVTVSS"
  recordedNumber: 0.000302
- binder: "wtNbALFA (original alpaca-derived NbALFA single-domain antibody) (VHH, VHH; Any purification tag on the construct used in the BLI and SpA assays is not described; also called wild type NbALFA) VHH: EVQLQESGGGLVQPGGSLRLSCTASGVTISALNAMAMGWYRQAPGERRVMVAAVSERGNAMYRESVQGRFTVTRDFTNKMVSLQMDNLKPEDTAVYYCHVLEDRVDSFHDYWGQGTQVTVSS"
  recordedNumber: "6.37e-05"
